Every entry's value here was drawn from patent US20250326725A1.

assay-protocol: Cell toxicity (CC50) in EV68 assay
run-parameters: EV68 CC50
Consider the following partition of reported CC50 into named classes: lower band: < 20 µM; central band: ≥ 20 µM and < 50 µM; upper band: ≥ 50 µM

COc1ccc(-c2sc(NC(C)(C)C3CCOCC3)nc2C)cc1S(=O)(=O)Nc1ccncc1C(F)(F)F [Compound S-26] | central band
COc1ccc(-c2sc(NC(C)(C)C3CCOCC3)nc2C)cc1S(=O)(=O)Nc1cccnc1C [Compound S-3] | central band
COc1ccc(-c2sc(NC(C)(C)C3CCOCC3)nc2C)cc1S(=O)(=O)Nc1c(C)ncnc1C [Compound S-17] | upper band

Lab note: sort COc1ccc(-c2sc(NC(C)(C)c3ccccc3)nc2C)cc1S(=O)(=O)NC1CCN(C=O)CC1 [Compound S-43] into the matching CC50 band.
upper band

====

assay-protocol: Cell toxicity (CC50) in BK virus assay
assay-readout: CC50

Example molecules with recorded CC50:
COc1ccc(-c2sc(NC(C)C3CCOCC3)nc2C)cc1S(=O)(=O)Nc1c(C)cccc1F (stereo not shown) [Compound S-76] | 27 µM
COc1ccc(-c2sc(NC(C)(C)C3CCOCC3)nc2C)cc1S(=O)(=O)Nc1c(C)cccc1F [Compound C] | > 100 µM
Nc1ccn(C[C@@H](CO)OCP(=O)(O)O)c(=O)n1 [PC1, cidofovir, reference compound] | > 100 µM

Moving on to the next molecule.
Can you share its CC50? I mean this molecule: COc1ccc(-c2sc(NC(C)C3CCOCC3)nc2C)cc1S(=O)(=O)Nc1ccccc1Cl (stereo not shown) [Compound B]
> 100 µM

====

assay-protocol: Microsomal stability, mouse liver microsomes
Format: in vitro ADME
run-parameters: with ritonavir (concentration not stated), + Ritonavir, read-out: HLM/MLM (t ½ min) + Ritonavir: MLM
Recorded measurements of half-life, one per entry
Value expressed in h; do not type the unit.

# count of solved cases: 4
COc1ccc(-c2sc(NC(C)(C)C3CCOCC3)nc2C)cc1S(=O)(=O)Nc1cccnc1C [Compound S-3] | 2.65
COc1ccc(-c2sc(NC(C)(C)c3ccccc3)nc2C)cc1S(=O)(=O)NC1CCN(C(C)=O)CC1 [Compound S-42] | 1.37
COc1ccc(-c2sc(NC(C)(C)c3ccccn3)nc2C)cc1S(=O)(=O)Nc1c(C)cccc1F [Compound S-45] | 1.12
COc1ccc(-c2sc(NC(C)(C)c3ccccc3)nc2C)cc1S(=O)(=O)Nc1c(C)cccc1F [Compound S-32] | 2.22

Recorded half-life of COc1ccc(-c2sc(NC(C)(C)C3CCOCC3)nc2C)cc1S(=O)(=O)Nc1c(C)cccc1F [Compound S-1] , please.
0.833

Given the entry COc1ccc(-c2sc(NC(C)(C)c3cccnc3)nc2C)cc1S(=O)(=O)Nc1c(C)cccc1F [Compound S-39] , report its measured half-life.
1.38

====

assay-protocol: Cell toxicity (CC50) in HRV assay
run-parameters: human, HRV CC50
assay-readout: log10(CC50) (log10 of the value in µM)
Log10 applied to CC50; unit prior to transform: µM.

Illustrative cases are given below, each with its answer.
COc1ccc(-c2sc(NC(C)(C)C3CCOCC3)nc2C)cc1S(=O)(=O)NC1CCN(C(=O)OC(C)(C)C)CC1 [Compound S-9] | 2.00
COc1ccc(-c2sc(NC(C)(C)c3ccccc3)nc2C)cc1S(=O)(=O)NC1CCNCC1 [Compound S-41] | 0.28
COc1ccc(-c2sc(NC(C)(C)C3CCN(C(C)=O)CC3)nc2C)cc1S(=O)(=O)Nc1ccc(F)cc1Cl [Compound S-51] | 1.72
COc1ccc(-c2sc(NC(C)(C)C3CCOCC3)nc2C)cc1S(=O)(=O)Nc1cccc2[nH]cc(Br)c12 [Compound S-27] | 0.15
COc1ccc(-c2sc(NC(C)(C)C3CCOCC3)nc2C)cc1S(=O)(=O)Nc1ccc(F)cc1C(F)F [Compound S-30] | 0.58

Any idea what its log10(CC50) is? The compound is COc1ccc(-c2sc(NC(C)(C)C3CCOCC3)nc2C)cc1S(=O)(=O)Nc1ccc(Br)nc1F [Compound S-2]
1.52

Bench note: what log10(CC50) did COc1ccc(-c2sc(NC(C)(C)C3CCOCC3)nc2C)cc1S(=O)(=O)Nc1ncc[nH]1 [Compound S-24] show?
0.98
